Target: T1, human LTBP3-proTGFβ1 complex (human, UniProt Q9NS15 866-1039)
T1 construct: range 866-1039; also called hLTBP3-proTGFβ1; hLTBP3
T1 sequence (Q9NS15 866-1039 limits assumed, chain 1 of 2): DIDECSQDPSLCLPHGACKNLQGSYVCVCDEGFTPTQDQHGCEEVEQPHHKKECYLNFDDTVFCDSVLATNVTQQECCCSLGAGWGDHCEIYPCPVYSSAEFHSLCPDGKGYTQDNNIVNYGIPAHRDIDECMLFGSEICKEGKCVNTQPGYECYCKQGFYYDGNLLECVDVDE
T1 sequence (chain, as listed by the source limits assumed, chain 2 of 2): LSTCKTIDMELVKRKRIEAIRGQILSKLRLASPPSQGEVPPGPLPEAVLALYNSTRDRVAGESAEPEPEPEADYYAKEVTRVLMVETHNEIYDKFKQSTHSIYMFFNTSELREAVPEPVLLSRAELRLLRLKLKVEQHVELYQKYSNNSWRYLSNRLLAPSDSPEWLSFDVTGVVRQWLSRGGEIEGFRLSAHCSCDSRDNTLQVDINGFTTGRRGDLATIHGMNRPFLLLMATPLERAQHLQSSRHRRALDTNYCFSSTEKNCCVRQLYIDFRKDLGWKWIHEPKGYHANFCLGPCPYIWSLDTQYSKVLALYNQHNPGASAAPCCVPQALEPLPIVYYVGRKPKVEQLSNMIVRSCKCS
Test: BLI (Octet)
pKd: −log10 of the molar value.
value_type: pKd

[
  {
    "binder": "Ab25 (antibody, V domains shown) VH: EVQLVESGGGLVQPGGSLRLSCAASGFTFGSFSMDWVRQAPGKGLEWVSYISPDASTIYYADSVKGRFTISRDNAKNSLYLQMNSLRAEDTAVYYCARGVLDYGDMLDPWGQGTLVTVSS VL: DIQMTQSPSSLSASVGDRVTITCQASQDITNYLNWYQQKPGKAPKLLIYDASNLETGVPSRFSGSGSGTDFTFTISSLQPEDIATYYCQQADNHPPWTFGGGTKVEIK",
    "value_type": "pKd",
    "readout_number": 9.82
  },
  {
    "binder": "Ab19 (antibody, IgG4, V domains shown) VH: QVQLVESGGGVVQPGRSLRLSCAASGFTFSSFAMTWVRQAPGKGLEWVSAISGSGAATYFADSVKGRFTISRDNSKNTLYLQMNSLRAEDTAVYYCARVSSGHWDFDEWGQGTLVTVSS VL: DIQLTQSPSSLSASVGDRVTITCRASQSISSYLNWYQQKPGKAPKLLIYAASNLQSGVPSRFSGSGSGTDFTLTISSLQPEDFATYYCQQTYTVPLTFGGGTKVEIK",
    "value_type": "pKd",
    "readout_number": 9.81
  }
]
